Endpoint: melting point

Task: Find the recorded melting point belonging to "Cc1ccc(-n2cc(S(N)(=O)=O)cn2)cc1S(N)(=O)=O" and report it.
Output: 217 to 220 °C

Task: Find the recorded melting point belonging to "Cc1nn(-c2ccc(Cl)c(S(N)(=O)=O)c2)c(C)c1S(N)(=O)=O" and report it.
Output: 241 to 243 °C

Task: Find the recorded melting point belonging to "Cc1cccc(-n2nc(C)c(S(N)(=O)=O)c2C)c1" and report it.
Output: 174 to 176 °C

Task: Find the recorded melting point belonging to "Cc1nn(-c2ccc(S(N)(=O)=O)c(Cl)c2)c(C)c1S(N)(=O)=O" and report it.
Output: 198 to 201 °C

Task: Find the recorded melting point belonging to "Cc1cc(-n2nc(C)c(S(N)(=O)=O)c2C)ccc1S(N)(=O)=O" and report it.
Output: 143 to 146 °C

Task: Find the recorded melting point belonging to "Cc1nn(-c2cccc(Cl)c2)c(C)c1S(N)(=O)=O" and report it.
Output: 182 to 184 °C

Task: Find the recorded melting point belonging to "Cc1ccc(-n2nc(C)c(S(N)(=O)=O)c2C)cc1" and report it.
Output: 171 to 174 °C

* * *

Provide the recorded Ki for the entries that follow.
target: hCA I (Homo sapiens); assay: stopped-flow CA catalysed CO2 hydration assay, hCA I

Task: Find the recorded Ki belonging to "COc1ccc(-n2nc(C)cc2C)cc1S(N)(=O)=O" and report it.
Output: > 10 µM

Task: Find the recorded Ki belonging to "COc1cc(-n2cccn2)ccc1S(N)(=O)=O" and report it.
Output: > 10 µM

Task: Find the recorded Ki belonging to "Cc1ccc(-n2nc(C)c(S(N)(=O)=O)c2C)cc1S(N)(=O)=O" and report it.
Output: > 10 µM

* * *

biological target: hCA II (Homo sapiens); experiment: stopped-flow CA catalysed CO2 hydration assay, hCA II
Endpoint: pKi
// scale note: pKi = -log10(conc_M); give the bare number

Task: Find the recorded pKi belonging to "COc1ccc(-n2nc(C)c(S(N)(=O)=O)c2C)cc1S(N)(=O)=O" and report it.
Output: 6.02

Task: Find the recorded pKi belonging to "Cc1nn(-c2cccc(Cl)c2)c(C)c1S(N)(=O)=O" and report it.
Output: 5.97

Task: Find the recorded pKi belonging to "Cc1nn(-c2ccc(S(N)(=O)=O)c(Cl)c2)c(C)c1S(N)(=O)=O" and report it.
Output: 8.10

Task: Find the recorded pKi belonging to "Cc1cc(-n2nc(C)c(S(N)(=O)=O)c2C)ccc1S(N)(=O)=O" and report it.
Output: 8.70

* * *

target: hCA VII (Homo sapiens); test: stopped-flow CA catalysed CO2 hydration assay, hCA VII
Sequence (P43166 whole entry): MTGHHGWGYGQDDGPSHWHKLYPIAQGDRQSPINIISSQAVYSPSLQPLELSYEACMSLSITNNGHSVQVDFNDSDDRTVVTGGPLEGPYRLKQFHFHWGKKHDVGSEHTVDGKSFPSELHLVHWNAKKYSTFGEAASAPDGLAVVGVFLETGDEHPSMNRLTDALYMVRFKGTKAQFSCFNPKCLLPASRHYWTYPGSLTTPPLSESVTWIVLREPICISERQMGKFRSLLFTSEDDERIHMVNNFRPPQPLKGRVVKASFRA
Provide the recorded Ki for the entries that follow.

Task: Find the recorded Ki belonging to "Cc1ccc(S(N)(=O)=O)cc1-n1nc(C)c(S(N)(=O)=O)c1C" and report it.
Output: > 10 µM

Task: Find the recorded Ki belonging to "Cc1nn(-c2ccc(Cl)cc2)c(C)c1S(N)(=O)=O" and report it.
Output: > 10 µM

Task: Find the recorded Ki belonging to "COc1ccc(S(N)(=O)=O)cc1-n1nc(C)cc1C" and report it.
Output: > 10 µM

Task: Find the recorded Ki belonging to "Cc1ccc(-n2nc(C)c(S(N)(=O)=O)c2C)cc1S(N)(=O)=O" and report it.
Output: > 10 µM

Task: Find the recorded Ki belonging to "Cc1nn(-c2cc(S(N)(=O)=O)ccc2Cl)c(C)c1S(N)(=O)=O" and report it.
Output: > 10 µM

Task: Find the recorded Ki belonging to "Cc1ccc(-n2cccn2)cc1S(N)(=O)=O" and report it.
Output: > 10 µM

Task: Find the recorded Ki belonging to "Cc1nn(-c2ccccc2Cl)c(C)c1S(N)(=O)=O" and report it.
Output: > 10 µM

Task: Find the recorded Ki belonging to "COc1ccc(-n2nc(C)cc2C)cc1S(N)(=O)=O" and report it.
Output: > 10 µM

Task: Find the recorded Ki belonging to "Cc1nn(-c2ccc(Cl)c(S(N)(=O)=O)c2)c(C)c1S(N)(=O)=O" and report it.
Output: 0.65 µM

Task: Find the recorded Ki belonging to "Cc1nn(-c2cccc(Cl)c2)c(C)c1S(N)(=O)=O" and report it.
Output: 0.46 µM

Task: Find the recorded Ki belonging to "COc1cc(-n2nc(C)cc2C)ccc1S(N)(=O)=O" and report it.
Output: > 10 µM

Task: Find the recorded Ki belonging to "Cc1ccccc1-n1nc(C)c(S(N)(=O)=O)c1C" and report it.
Output: > 10 µM

* * *

Provide the recorded Ki for the entries that follow.
biological target: hCA I (Homo sapiens, UniProt P00915); experiment: stopped-flow CA catalysed CO2 hydration assay, hCA I
Sequence (P00915 whole entry): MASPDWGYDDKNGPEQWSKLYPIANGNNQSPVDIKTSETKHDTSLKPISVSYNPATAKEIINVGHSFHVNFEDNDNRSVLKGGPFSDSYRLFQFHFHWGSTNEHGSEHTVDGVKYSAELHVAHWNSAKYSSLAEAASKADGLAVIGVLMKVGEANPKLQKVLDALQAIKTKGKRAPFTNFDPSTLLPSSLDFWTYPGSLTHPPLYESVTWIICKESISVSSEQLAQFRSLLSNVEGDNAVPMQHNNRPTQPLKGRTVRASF

Task: Find the recorded Ki belonging to "COc1ccc(S(N)(=O)=O)cc1-n1nc(C)cc1C" and report it.
Output: > 10 µM

Task: Find the recorded Ki belonging to "Cc1ccc(-n2cccn2)cc1S(N)(=O)=O" and report it.
Output: > 10 µM

Task: Find the recorded Ki belonging to "COc1ccc(S(N)(=O)=O)cc1-n1cccn1" and report it.
Output: > 10 µM

* * *

target: UniProtKB P00918; test: stopped-flow CA catalysed CO2 hydration assay, hCA II
Endpoint: pKi
// scale note: pKi = -log10(conc_M); give the bare number

Task: Find the recorded pKi belonging to "Cc1cc(C)n(-c2cc(S(N)(=O)=O)ccc2C)n1" and report it.
Output: 6.42

Task: Find the recorded pKi belonging to "NS(=O)(=O)c1cnn(-c2ccc(Cl)c(S(N)(=O)=O)c2)c1" and report it.
Output: 7.62

Task: Find the recorded pKi belonging to "Cc1cc(-n2cccn2)ccc1S(N)(=O)=O" and report it.
Output: 8.10

Task: Find the recorded pKi belonging to "Cc1nn(-c2cc(S(N)(=O)=O)ccc2Cl)c(C)c1S(N)(=O)=O" and report it.
Output: 7.60

Task: Find the recorded pKi belonging to "Cc1cc(C)n(-c2ccc(S(N)(=O)=O)c(C)c2)n1" and report it.
Output: 8.40

* * *

target: hCA IV (Homo sapiens); test: stopped-flow CA catalysed CO2 hydration assay, hCA IV
Sequence (P22748 19-312): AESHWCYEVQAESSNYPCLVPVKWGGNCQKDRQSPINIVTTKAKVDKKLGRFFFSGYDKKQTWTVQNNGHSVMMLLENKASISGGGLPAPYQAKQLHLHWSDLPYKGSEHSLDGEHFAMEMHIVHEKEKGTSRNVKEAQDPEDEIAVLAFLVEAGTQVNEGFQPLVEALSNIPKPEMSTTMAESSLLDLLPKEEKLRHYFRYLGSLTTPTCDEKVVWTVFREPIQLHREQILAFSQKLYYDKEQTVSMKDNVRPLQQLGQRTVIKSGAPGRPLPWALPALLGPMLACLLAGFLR
Endpoint: Ki (µM)
Report only the number, with the unit µM understood.

Task: Find the recorded Ki belonging to "Cc1ccc(-n2cc(S(N)(=O)=O)cn2)cc1S(N)(=O)=O" and report it.
Output: 0.24

Task: Find the recorded Ki belonging to "NS(=O)(=O)c1ccc(-n2cc(S(N)(=O)=O)cn2)cc1" and report it.
Output: 0.025

Task: Find the recorded Ki belonging to "Cc1ccc(-n2cccn2)cc1S(N)(=O)=O" and report it.
Output: 0.56

Task: Find the recorded Ki belonging to "COc1ccc(S(N)(=O)=O)cc1-n1nc(C)c(S(N)(=O)=O)c1C" and report it.
Output: 0.95

* * *

target: hCA II (Homo sapiens); assay: stopped-flow CA catalysed CO2 hydration assay, hCA II
Provide the recorded Ki for the entries that follow.

Task: Find the recorded Ki belonging to Cc1ccc(-n2nc(C)c(S(N)(=O)=O)c2C)cc1S(N)(=O)=O [Compound 9d] and report it.
Output: > 10 µM

Task: Find the recorded Ki belonging to COc1ccc(-n2nc(C)cc2C)cc1S(N)(=O)=O [Compound 7g] and report it.
Output: > 10 µM

Task: Find the recorded Ki belonging to Cc1ccc(S(N)(=O)=O)cc1-n1nc(C)c(S(N)(=O)=O)c1C [Compound 9h] and report it.
Output: > 10 µM
